Assignment: determine reported protein stability index for the given variants.
B1: CD207 (parent)
chain: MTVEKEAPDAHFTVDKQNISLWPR

# Variants of: B1
# ASSAY OVERVIEW: protein stability index of a GFP-peptide fusion (GPS, HEK-293T) (PSI 1-6); higher = more stable;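 also: lentivirally expressed fusions sorted by FACS into six bins by GFP to DsRed ratio, PSI derived from sequencing read proportions per bin multiplied by bin number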
# SETUP CONDITIONS: c terminus: a fixed tail appended
Format: numeric value only, no unit, no commentary.

Form field protein stability index, entry MTVEKEAPMAHFTVDKQNISLWPR : 2.56

protein stability index reported for this variant MTVEKEAPDAHFTTDKQNISLWPR : 3.82

Lab note: measured protein stability index of MTVEKEAPDAHFTVDTQNISLWPR was 3.18

Note to self: protein stability index recorded for MTVEKEAPDAHFTVDKQNIWLWPR was 2.96

// protein stability index value for MTVEKEAPDAHFTVDKQNISLWPL : 2.95

// protein stability index value for MTVEKEAPDAHFTVDKQNISLWPE : 4.83

Entry MTVEKEKPDAHFTVDKQNISLWPR ; protein stability index = 3.11

Briefly, protein stability index measured for MTVEKEEPDAHFTVDKQNISLWPR : 4.23

The value of protein stability index measured for the variant NTVEKEAPDAHFTVDKQNISLWPR turned out to be 3.68

# protein stability index of MTTEKEAPDAHFTVDKQNISLWPR = 3.57

Please fill in: protein stability index reported for MTCEKEAPDAHFTVDKQNISLWPR = 2.68

protein stability index in this record for HTVEKEAPDAHFTVDKQNISLWPR : 3.27

Note to self: protein stability index recorded for MTVEKEAPDAHFTVDKQNISLMPR was 4.19

For this variant ( MTVEKEAPDAHETVDKQNISLWPR ), measured protein stability index is 4.38

Given item MTVEKEAPCAHFTVDKQNISLWPR , the value recorded as its protein stability index is 3.01

Per the records, this variant ( MTVEKEAPDAHFTVDKENISLWPR ) has protein stability index equal to 3.26

Reported protein stability index ( MLVEKEAPDAHFTVDKQNISLWPR ) = 3.17

Lab book: protein stability index of MTIEKEAPDAHFTVDKQNISLWPR noted as 3.33

VTVEKEAPDAHFTVDKQNISLWPR has a reported protein stability index of 3.76

Briefly, protein stability index measured for MTVEKEAPDAHFTVDKQNPSLWPR : 4

Form field protein stability index, entry MTVEHEAPDAHFTVDKQNISLWPR : 3.27

Lab note: measured protein stability index of MTVEKEAPDAHFTVDKQNISLWPS was 3.57

Record summary for MTVEDEAPDAHFTVDKQNISLWPR : reported protein stability index = 3.48

Quick note, protein stability index for MTVEKEARDAHFTVDKQNISLWPR landed at 3.71

For MTVEKEAPDAHFTVCKQNISLWPR the variant record lists protein stability index as 3.35

Lab book: protein stability index of MTVEKEFPDAHFTVDKQNISLWPR noted as 2.77

For MTVEKEAPDAHQTVDKQNISLWPR the variant record lists protein stability index as 4.5

Just so you know, measured protein stability index for MTVEKEAPDAHFPVDKQNISLWPR came out at 3.19

Sample MTVEKEAPDAHFTVQKQNISLWPR ; protein stability index observed: 3.17

The recorded protein stability index for entry MTVEKEAPDAHFTVDKQNGSLWPR equals 3.13

MTVEKEAPDDHFTVDKQNISLWPR yielded protein stability index of 3.56

Lookup result for MTVEKEAPDAHFTVDKQNISLWPC ; measured protein stability index: 3.16

variant MTSEKEAPDAHFTVDKQNISLWPR , protein stability index observed: 3.55

Entry MTREKEAPDAHFTVDKQNISLWPR ; protein stability index = 3.9

The variant MTVEKELPDAHFTVDKQNISLWPR showed protein stability index equal to 2.96

Please fill in: protein stability index reported for MTVEKEAPDAHFTVDKQNISLWWR = 2.52

protein stability index reported for this variant MKVEKEAPDAHFTVDKQNISLWPR : 3.65

The reported value for MTVEKEAPDFHFTVDKQNISLWPR in terms of protein stability index is 2.84

MTVEKEAPDAHFGVDKQNISLWPR yielded protein stability index of 3.04

Value of measured protein stability index for the entry MTVEKEAPDAHFTVDCQNISLWPR : 3.76

So, MTVEKEAPDAHFTWDKQNISLWPR ? Its protein stability index was 2.65

For MTVEKEAPDAHFTVPKQNISLWPR the variant record lists protein stability index as 2.74

Entry MTVEKEAPIAHFTVDKQNISLWPR — recorded protein stability index = 2.19

The recorded protein stability index for KTVEKEAPDAHFTVDKQNISLWPR is 2.81
